Here's what we have: EC50 numbers for Estrogen receptor beta (Homo sapiens, UniProt Q92731).

Task item: API: value(readout=EC50, system=Estrogen receptor beta (Homo sapiens, UniProt Q92731)) for record CCC(=C(c1ccc(N)cc1)c1ccc(NCC(N)=O)cc1)c1ccc([N+](=O)[O-])cc1
Reply: 346 nM

Task item: API: value(readout=EC50, system=Estrogen receptor beta (Homo sapiens, UniProt Q92731)) for record CC(=C(c1ccc(N)cc1)c1ccc(NCC(N)=O)cc1)c1ccc([N+](=O)[O-])cc1
Reply: 218 nM

* * *

Protein target, amino acids: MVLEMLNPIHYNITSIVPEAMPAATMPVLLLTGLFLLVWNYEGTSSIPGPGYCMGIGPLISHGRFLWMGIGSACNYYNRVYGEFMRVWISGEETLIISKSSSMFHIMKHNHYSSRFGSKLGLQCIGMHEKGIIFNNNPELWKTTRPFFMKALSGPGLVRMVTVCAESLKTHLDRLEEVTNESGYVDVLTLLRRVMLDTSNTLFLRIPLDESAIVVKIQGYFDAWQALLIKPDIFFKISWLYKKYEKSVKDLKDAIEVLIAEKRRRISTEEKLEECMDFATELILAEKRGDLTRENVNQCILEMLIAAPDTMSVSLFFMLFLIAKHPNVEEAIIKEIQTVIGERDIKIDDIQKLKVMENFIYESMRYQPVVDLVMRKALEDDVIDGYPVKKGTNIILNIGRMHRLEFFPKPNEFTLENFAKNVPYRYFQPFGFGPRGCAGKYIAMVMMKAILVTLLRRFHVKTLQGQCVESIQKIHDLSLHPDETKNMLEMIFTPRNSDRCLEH
reported-metric: IC50 (µM)
Numbers only here, please. The scale is µM.

Task item: Which value of IC50 has been reported for CC(=C(c1ccc(O)cc1)c1ccc(OCC(N)=O)cc1)c1ccc([N+](=O)[O-])cc1 in the records?
Reply: 9.72
